# TEST_TARGET: Dopamine beta hydroxylase (Homo sapiens, UniProt P09172)
# Construct: 125 μl of plasma; tissue Instituto Português do Sangue Transplantação; host or cells: human plasma from healthy donors
# Sequence (P09172 40-617 limits assumed): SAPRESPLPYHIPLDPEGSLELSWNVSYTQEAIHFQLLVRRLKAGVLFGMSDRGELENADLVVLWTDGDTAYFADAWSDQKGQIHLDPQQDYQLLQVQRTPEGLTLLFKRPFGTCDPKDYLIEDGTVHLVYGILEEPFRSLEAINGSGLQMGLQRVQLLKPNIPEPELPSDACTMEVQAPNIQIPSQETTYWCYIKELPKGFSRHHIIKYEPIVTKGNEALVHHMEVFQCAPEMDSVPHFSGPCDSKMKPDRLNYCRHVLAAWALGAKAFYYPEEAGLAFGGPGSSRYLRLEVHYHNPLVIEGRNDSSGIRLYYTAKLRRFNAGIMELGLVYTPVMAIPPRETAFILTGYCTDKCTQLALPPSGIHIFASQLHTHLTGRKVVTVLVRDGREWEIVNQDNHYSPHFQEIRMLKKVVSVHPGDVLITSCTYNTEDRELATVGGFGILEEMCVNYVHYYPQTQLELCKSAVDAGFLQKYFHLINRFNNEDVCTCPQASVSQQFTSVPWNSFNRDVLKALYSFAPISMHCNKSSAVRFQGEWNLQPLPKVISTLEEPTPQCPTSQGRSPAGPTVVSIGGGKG
# ASSAY_EXPLANATION: Dopamine beta hydroxylase activity in human plasma
# Format: biochemical
# CONDITION_CONTEXT: inhibitor 0.1 μM
Plasma (0.1 μM), activity in % of control values, listed per item

Before answering, review these 5 worked examples.
{"columns": ["COMPOUND", "TEST_TARGET", "REPORTED"],
 "data": [
  ["F.Fc1ccc(Br)cc1[C@]12C[C@H]1c1c(CCNC3CCC3)[nH]c(=S)n1C2 [Example 188]", "Dopamine beta hydroxylase (Homo sapiens, UniProt P09172)", "15.4 % of control"],
  ["O=C(Cc1[nH]c(=S)n2c1C[C@H](c1c(F)c(F)cc(F)c1F)C2)NCC1CC1 [Example 79]", "Dopamine beta hydroxylase (Homo sapiens, UniProt P09172)", "54.3 % of control"],
  ["CN(C(=O)Cc1c2n(c(=S)n1C)C[C@@]1(c3c(F)ccc(Cl)c3F)C[C@@H]21)[C@@H]1CCOC1 [Example 467]", "Dopamine beta hydroxylase (Homo sapiens, UniProt P09172)", "4.0 % of control"],
  ["Cn1c(CC(=O)N[C@@H]2CCOC2)c2n(c1=S)C[C@H](c1c(F)ccc(Cl)c1F)C2 [Example 250]", "Dopamine beta hydroxylase (Homo sapiens, UniProt P09172)", "7.3 % of control"],
  ["Cn1cc(CNC(=O)Cc2c3n(c(=S)n2C)C[C@H](c2c(F)ccc(Cl)c2F)C3)cn1 [Example 338]", "Dopamine beta hydroxylase (Homo sapiens, UniProt P09172)", "6.2 % of control"]
]}

Please look up its Plasma (0.1 μM), activity in % of control: N[C@@H](CNC(=O)Cc1[nH]c(=S)n2c1C[C@H](c1c(F)c(F)cc(F)c1F)C2)C(=O)O [Example 31] 67.7 % of control

Please look up its Plasma (0.1 μM), activity in % of control: O=C(Cc1[nH]c(=S)n2c1C[C@H](c1c(F)ccc(Br)c1F)C2)N1CCS(=O)(=O)CC1 [Example 125] 43.7 % of control
